Value source: paper PMC9482650

- Test target: FRMPD2_1, Q68DX3
- Sequence (Q68DX3 770-861): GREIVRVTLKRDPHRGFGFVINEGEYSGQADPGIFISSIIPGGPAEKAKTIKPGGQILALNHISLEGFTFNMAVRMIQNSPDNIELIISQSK
- Protocol summary: holdup assay
- Set-up: key: below the threshold = too weak to quantify, mostly under pKd 3.1 to 4
- Measurement context: plain residues with an end cap or a label only (N-terminal biotin on a linker: ado-ado)
Observed property: pKd

[[record]]
binder = "NHSSSPETTA [TRMT13, Q9NUP7]"
measured_value = "below the threshold"

[[record]]
binder = "LPHGHSTTRV [NLGN4X, Q8N0W4]"
measured_value = "below the threshold"

[[record]]
binder = "ETQVTAETVI [TMEM225B, P0DP42]"
measured_value = "below the threshold"

[[record]]
binder = "TACCHSETVV [TGFA, P01135]"
measured_value = "below the threshold"

[[record]]
binder = "LPAHHNATRL [SLC34A1, Q06495;Q06495-1]"
measured_value = "below the threshold"

[[record]]
binder = "QSLNRMEYIV [JAG1, P78504]"
measured_value = 3.89

[[record]]
binder = "TSQESEDTYL [TBC1D10A, Q9BXI6]"
measured_value = "below the threshold"

[[record]]
binder = "YLEPVLSSEL [ATP2A2, P16615;P16615-3]"
measured_value = "below the threshold"

[[record]]
binder = "VRNLPESEEL [MYOZ3, Q8TDC0]"
measured_value = "below the threshold"

[[record]]
binder = "VNKSKLLTDV [KCNA1, Q09470]"
measured_value = "below the threshold"

[[record]]
binder = "DTTVPESEDL [MYOZ2, Q9NPC6]"
measured_value = "below the threshold"

[[record]]
binder = "QSPANIYYKV [EFNB1, P52799]"
measured_value = "below the threshold"

[[record]]
binder = "RRRESYSTTV [EVI5, O60447]"
measured_value = 3.74

[[record]]
binder = "PRAEAEDSFL [PDGFRB, P09619]"
measured_value = "below the threshold"

[[record]]
binder = "IPLDGETEEL [MYOZ1, Q9NP98]"
measured_value = "below the threshold"

[[record]]
binder = "DDENIRTSDV [PLEKHA2, Q9HB19]"
measured_value = "below the threshold"

[[record]]
binder = "VKPQVSESKL [ACOT8, O14734]"
measured_value = "below the threshold"

[[record]]
binder = "EVEEFPETSV [TRPV3, Q8NET8]"
measured_value = 3.59

[[record]]
binder = "QGLAERISVL [PRKD2, Q9BZL6]"
measured_value = "below the threshold"

[[record]]
binder = "VDSTVKVWTC [TRAF7, Q6Q0C0]"
measured_value = 4.45

[[record]]
binder = "PEYLGLDVPV [ERBB2, P04626]"
measured_value = 3.53

[[record]]
binder = "HSGYRLNDYV [CLDN14, O95500]"
measured_value = "below the threshold"

[[record]]
binder = "SARSRLSSNL [HCN2, Q9UL51]"
measured_value = "below the threshold"

[[record]]
binder = "PLSPEQPTKL [TRIM50, Q86XT4]"
measured_value = "below the threshold"

[[record]]
binder = "SKSNFGSEPL [KIF17, Q9P2E2]"
measured_value = "below the threshold"

[[record]]
binder = "QGPVETESVV [SLC45A4, Q5BKX6]"
measured_value = "below the threshold"

[[record]]
binder = "SAAKVLTSMC [GHRHR, Q02643]"
measured_value = "below the threshold"

[[record]]
binder = "LSEFKAMDSI [CTNNA1, P35221]"
measured_value = "below the threshold"

[[record]]
binder = "EALLQMESVA [CAVIN3, Q969G5]"
measured_value = 3.62

[[record]]
binder = "YNNCLEILRV [DCAF7, P61962]"
measured_value = "below the threshold"

[[record]]
binder = "TPPAAKKSRI [BAZ1A, Q9NRL2]"
measured_value = "below the threshold"

[[record]]
binder = "RRLPGKETMA [GRIK2, Q13002]"
measured_value = "below the threshold"

